Test system: HEK-293T
Assay: Multiplex assay against HEK293T
Format: toxicity, cell-based
Conditions: human, 48 h, 10 µM, compound concentration 10 uM, replicate 1
PROPERTY: Population Healthy Nuclei (%)

> print(dat)
                                   molecule                       property  obs.value
1  COc1c(C)cc(NC(=O)c2nn(Cc3ccc(F)cc3)c3c2CN(C(=O)c2ccc[nH]2)C[C@]3(C)C(N)=O)cc1C  Population Healthy Nuclei (%)        76%
2  Cc1ccc(F)cc1C(=O)Nc1ccc(C(=O)N2Cc3cccn3Cc3ccccc32)c(Cl)c1  Population Healthy Nuclei (%)        74%
3  N[C@@]1(C(=O)O)CO[C@H]2[C@H](C(=O)O)[C@H]21  Population Healthy Nuclei (%)        75%
4  Cc1ccc(C(C)(O)c2nc3ccccc3s2)c(C)c1 (stereo not given)  Population Healthy Nuclei (%)        76%
5  CCOc1c2c(c(OCC)c3ncccc13)CN(c1ccc(CS(=O)(=O)NC(=O)Cc3ccccc3OC)cc1C)C2=O  Population Healthy Nuclei (%)        78%

The reported measurements were obtained from ChEMBL document CHEMBL5058577.
